Target: Fes (UniProt P07332)
Sequence (P07332 whole entry, looked up): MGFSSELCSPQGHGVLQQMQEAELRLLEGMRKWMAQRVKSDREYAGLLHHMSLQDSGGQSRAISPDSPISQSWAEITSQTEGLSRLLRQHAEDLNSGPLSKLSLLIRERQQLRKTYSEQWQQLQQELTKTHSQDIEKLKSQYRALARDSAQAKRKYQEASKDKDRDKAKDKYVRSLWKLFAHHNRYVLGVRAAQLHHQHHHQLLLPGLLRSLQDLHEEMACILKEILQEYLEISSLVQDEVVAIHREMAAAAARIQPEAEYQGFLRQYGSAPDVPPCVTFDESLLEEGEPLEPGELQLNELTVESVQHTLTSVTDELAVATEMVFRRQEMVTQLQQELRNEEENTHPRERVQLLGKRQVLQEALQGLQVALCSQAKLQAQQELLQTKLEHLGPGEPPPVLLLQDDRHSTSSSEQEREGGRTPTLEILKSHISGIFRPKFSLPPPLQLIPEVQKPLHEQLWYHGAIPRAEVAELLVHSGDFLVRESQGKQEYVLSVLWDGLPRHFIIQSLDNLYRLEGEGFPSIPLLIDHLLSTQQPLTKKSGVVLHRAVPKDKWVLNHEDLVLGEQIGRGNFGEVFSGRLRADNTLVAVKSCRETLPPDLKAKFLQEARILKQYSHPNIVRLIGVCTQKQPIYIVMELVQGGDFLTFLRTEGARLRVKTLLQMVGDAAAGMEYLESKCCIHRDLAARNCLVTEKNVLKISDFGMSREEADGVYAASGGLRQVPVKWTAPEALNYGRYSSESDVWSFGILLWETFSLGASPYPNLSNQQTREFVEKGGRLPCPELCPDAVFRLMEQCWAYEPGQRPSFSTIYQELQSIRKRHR
Test: phosphorylation enrichment, bacterial display (enrichment ratio); higher = better substrate or ligand; peptides without Tyr show the background;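 further: 11-residue human phosphosite peptides and single-mutation variants displayed on the E. coli surface, counted by deep sequencing, each peptide's frequency after selection divided by its frequency in the unselected input library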;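 further: frequency after pTyr selection over input frequency; kinase dosed for 20-30% of maximal phosphorylation in three min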
experimentalEndpoint: phosphorylation enrichment

>>> recordedmeasurement("KVPAIYGVGTR [CPS1_Y162_D165G]")
0.576
>>> recordedmeasurement("KGEDFYYVTCH [FHL1_Y149_C150Y]")
1.43
>>> recordedmeasurement("DEFLEYRRIVG [FAM221A_Y20_YF]")
1.17

Dear colleague, could you please provide phosphorylation enrichment for the sequences listed below?
1. QSPQLYKQLCI [DARS1_Y253_M256L]
2. SGRPGYCLGTR [SCO1_Y60]
3. PAGSGYPAYLG [ATP6V1A_Y374_D371G]
4. DLEKTYNTFRS [B4GALNT2_Y538_A533D_YF]

OUTPUT:
[1.12, 0.874, 0.752, 0.851]
